// data source = ChEMBL document CHEMBL3988442

Entries annotated with measured Percent Effect
System: Wolbachia pipientis
Protocol Summary: Anti-Wolbachia Cell-Based Screen
Assay type: functional
Set-up: scale not given: in the data most compounds retested in dose-response had high values
Assay Setup: 5 µM
Hit rate of the full screen: of about 48,000 compounds, about 13,000 (27%) showed an effect of 50% or more. This is one part of the list.
Form entry: value (%) — number only.

INSERT INTO assay_data (compound, property_label, readout_unit, quantitative_readout) VALUES
  ('Cc1cncc(C(=O)N2CCC3(CC2)NC(=O)CC3c2ccccc2)c1.O=C(O)C(F)(F)F (centres undefined)', 'Percent Effect', '%', -43.74),
  ('NS(=O)(=O)N1CCc2ccc(NC(=O)CCc3ccncc3)cc21', 'Percent Effect', '%', -8.791),
  ('COc1ccc(OC)c2c(C)cc(N(CCO)CCO)nc12', 'Percent Effect', '%', -7.73),
  ('CCOCCC(=O)N(C)Cc1noc(C(C)C)n1', 'Percent Effect', '%', -6.768),
  ('O=C(NCCn1ccnc1)c1ccn(-c2cccc(F)c2)n1', 'Percent Effect', '%', 3.245),
  ('CC(=O)NCc1ccc(C(=O)N2CCCCC2Cn2cccn2)o1 (centres undefined)', 'Percent Effect', '%', -0.4212);

Problem: Reported Percent Effect, compound N#Cc1nccnc1N1CCC(OCCCc2ccccc2)C1 (centres undefined) : ____
Solution: 1.367

Problem: Reported Percent Effect, compound O=C1CCC(=O)N1CCN1CCOC(c2ccsc2)C1 (centres undefined) : ____
Solution: -5.454

Problem: Reported Percent Effect, compound CCN1CCC(CC(=O)NC[C@H]2CCc3ccccc3O2)CC1 : ____
Solution: 15.83

###

Entries annotated with measured Percent Effect
Tested on: Wolbachia pipientis
Protocol Summary: Anti-Wolbachia Cell-Based Screen
Assay type: functional
Set-up: scale not given: in the data most compounds retested in dose-response had high values
Assay Setup: 5 µM
The campaign covered roughly 48,000 compounds. About 13,000 (27%) showed an effect of 50% or more. Some of the results follow.
Form entry: value (%) — number only.

Problem: Reported Percent Effect, molecule CN(C)C(=O)CN1CCCc2c(F)cc(Br)cc21 : ____
Solution: 1.685

Problem: Reported Percent Effect, molecule COc1cccc2c1N(C(=O)c1ccc(C)nc1)CCC2 : ____
Solution: 2.178

Problem: Reported Percent Effect, molecule O=C(O)c1ccc(S(=O)(=O)Nc2ccccc2F)c(F)c1 : ____
Solution: -2.05

Problem: Reported Percent Effect, molecule COc1ccc(CNC(C)c2cn[nH]c2C)cc1 (stereo not given) : ____
Solution: 2.524

Problem: Reported Percent Effect, molecule Cc1nnc(NCc2ccc(F)cc2)o1 : ____
Solution: 4.213

###

System: Wolbachia pipientis
Protocol Summary: Anti-Wolbachia Cell-Based Screen
Assay type: functional
Design: scale not given: in the data most compounds retested in dose-response had high values
Assay Setup: 5 µM
The campaign covered roughly 48,000 compounds. About 13,000 (27%) showed an effect of 50% or more. The list shows a part of the results.
Property Label: Percent Effect (%)
Form entry: value (%) — number only.

Known Percent Effect results, listed for orientation:
INSERT INTO results (compound, assay_target, quantitative_readout) VALUES
  ('COCCNC(=O)[C@H]1CC[C@@H]2[C@@H](CCN2S(C)(=O)=O)O1', 'Wolbachia pipientis', -5.573),
  ('CCC(CO)N(Cc1cccs1)C(=O)CSC (stereo not drawn)', 'Wolbachia pipientis', -12.18);

Problem: Reported Percent Effect, compound CNC(=O)[C@@H]1COC[C@H]2CN(C(=O)COc3ccccc3)C[C@H]21 : ____
Solution: -5.187

Problem: Reported Percent Effect, compound CNC(=O)C1CCN(c2nccc(CCC(F)(F)F)n2)C1 (stereo not drawn) : ____
Solution: -10.68

Problem: Reported Percent Effect, compound CCCn1cc(C(=O)N2CCCC2(C)c2nc(C)cc(C)n2)cn1 (stereo not drawn) : ____
Solution: 137.7

Problem: Reported Percent Effect, compound COCCC(=O)N1CCN(C)c2ncccc2C1 : ____
Solution: -0.6435

Problem: Reported Percent Effect, compound CNC(=O)[C@@H]1CN(C(=O)CCOC)C[C@H]1c1ccnc(N2CCCC2)n1.Cl : ____
Solution: 97.41

Problem: Reported Percent Effect, compound CCNC(=O)C1CCN(c2nccc(C3CCCC3)n2)C1 (stereo not drawn) : ____
Solution: -5.882

###

Test system: Wolbachia pipientis
Protocol Summary: Anti-Wolbachia Cell-Based Screen
Assay type: functional
Set-up: scale not given: in the data most compounds retested in dose-response had high values
Assay Setup: 5 µM
In all, about 48,000 compounds went through this assay and about 13,000 (27%) showed an effect of 50% or more. This is one part of the list.
Property Label: Percent Effect (%)
Form entry: value (%) — number only.

Problem: Reported Percent Effect, compound O=S(=O)(NCC1(O)CCCC1)c1ccccc1Br : ____
Solution: 2.398

Problem: Reported Percent Effect, compound COCC(C)NS(=O)(=O)c1ccc(Br)cn1 (centres undefined) : ____
Solution: -13.48

Problem: Reported Percent Effect, compound CCC1=N[C@@]2(CC[C@@H]3CN(CC(C)C)C[C@@H]32)C(=O)N1.O=C(O)C(F)(F)F : ____
Solution: -10.58

Problem: Reported Percent Effect, compound CN(C)C(=O)N1CCN(CCCc2ccccc2)[C@H]2CS(=O)(=O)C[C@H]21 : ____
Solution: -9.893

###

Entries annotated with measured Percent Effect
Tested on: Wolbachia pipientis
Protocol Summary: Anti-Wolbachia Cell-Based Screen
Format: functional
Set-up: scale not given: in the data most compounds retested in dose-response had high values
Assay Setup: 5 µM
Among all 48,000 compounds or so, about 13,000 (27%) showed an effect of 50% or more. The list shows a part of the results.
Form entry: value (%) — number only.

Known Percent Effect results, listed for orientation:
INSERT INTO assay_data (compound, assay_target, property_label, readout_unit, quantitative_readout) VALUES
  ('CCc1noc(CC)c1CNC(=O)Nc1cccc([S+](C)[O-])c1 (stereo not drawn)', 'Wolbachia pipientis', 'Percent Effect', '%', -9.563),
  ('Cc1ccsc1-c1nc(CN(C)Cc2cc[nH]n2)c(C)o1', 'Wolbachia pipientis', 'Percent Effect', '%', 11.99),
  ('CC(C)c1nc(CCN(C)C(=O)C2COc3ccccc3C2)no1 (stereo not drawn)', 'Wolbachia pipientis', 'Percent Effect', '%', -22.02);

Problem: Param readout = Percent Effect; param system = Wolbachia pipientis; param query = COCCOc1ncccc1C(=O)N(C)c1ccc(OC)c(OC)c1 ; response: value
Solution: -8.68

Problem: Param readout = Percent Effect; param system = Wolbachia pipientis; param query = Cc1ccc(OCCNC(=O)C2CCOCC2)c(C)c1 ; response: value
Solution: -7.551

Problem: Param readout = Percent Effect; param system = Wolbachia pipientis; param query = CC(C)CC(CNC(=O)c1cccnc1Oc1cccnc1)N(C)C (stereo not drawn) ; response: value
Solution: -29.76

Problem: Param readout = Percent Effect; param system = Wolbachia pipientis; param query = Cc1ccc(Oc2ncccc2C(=O)N(C)CC2OCCO2)c(C)c1 ; response: value
Solution: 132.9

Problem: Param readout = Percent Effect; param system = Wolbachia pipientis; param query = Cc1ccc(Oc2ncccc2C(=O)O)c(C)c1 ; response: value
Solution: 113.8

###

Test system: Wolbachia pipientis
Protocol Summary: Anti-Wolbachia Cell-Based Screen
Assay type: functional
Parameters: scale not given: in the data most compounds retested in dose-response had high values
Assay Setup: 5 µM
Out of some 48,000 compounds screened, about 13,000 (27%) showed an effect of 50% or more. Some of the results follow.
Entries annotated with measured Percent Effect
Form entry: value (%) — number only.

Problem: Param readout = Percent Effect; param system = Wolbachia pipientis; param query = Cc1cc(N2CCC(Cc3ccncc3)C2)ncn1 (configuration not stated) ; response: value
Solution: 95.84

Problem: Param readout = Percent Effect; param system = Wolbachia pipientis; param query = COc1cc(N2CC[C@H]3OCC[C@@]3(COc3nccc(C)n3)C2)ncn1 ; response: value
Solution: -2.077

Problem: Param readout = Percent Effect; param system = Wolbachia pipientis; param query = C[C@@H]1CN(c2cc(N3CCC(O)CC3)ncn2)C[C@@]1(O)C1CCC1 ; response: value
Solution: 2.327

Problem: Param readout = Percent Effect; param system = Wolbachia pipientis; param query = Cc1cc(CN2CCc3nn(C)c(=O)cc3C2)no1 ; response: value
Solution: -29.82

Problem: Param readout = Percent Effect; param system = Wolbachia pipientis; param query = Cc1nc2c(c(=O)n1C)CN(C(=O)C1CCCN(C(=O)N(C)C)C1)C2 (configuration not stated) ; response: value
Solution: 1.11

Problem: Param readout = Percent Effect; param system = Wolbachia pipientis; param query = CCN(CC)S(=O)(=O)N1CCc2nc(C3CCNCC3)ncc2C1.Cl ; response: value
Solution: 116.7

Problem: Param readout = Percent Effect; param system = Wolbachia pipientis; param query = CC(=O)N1CCc2nc(N3CCCC3)nc(C)c2C1 ; response: value
Solution: 96.78
